# Experiment Description: Intrinsic clearance in rat microsomes
# Assay type: ADME, Microsome
I would appreciate it if you labelled entries t when CLint scaled is 80 mL/min/kg or higher, otherwise f.

[Q] API: above_or_equal(metric=CLint scaled, cutoff=80 mL/min/kg) for item Cc1nn(C)c2cnc(C(=O)NC3CN(c4cc(Cl)ncc4Cl)C3)cc12
[A] t

[Q] API: above_or_equal(metric=CLint scaled, cutoff=80 mL/min/kg) for item Cc1nc2ccc(C(=O)NC3CN(c4cc(Cl)ncc4Cl)C3)cn2c1C
[A] t

====

# Experiment Description: Unbound fraction in rat brain
# Format: ADME, tissue-based
Observation Type: fraction unbound
One number for each entry.

> print(dat)
                                item.smiles  observation.type  measured.value
1  Cc1c2cc(C(=O)NC3CN(c4cc(Cl)ncc4Cl)C3)ccc2nn1C  fraction unbound           0.032
2  Cn1nnc2ccc(C(=O)NC3CN(c4cc(Cl)ncc4Cl)C3)cc21  fraction unbound           0.053

Required: fraction unbound, one value per compound below.
1. Cc1nc2ccc(C(=O)NC3CN(c4cc(Cl)ncc4Cl)C3)cn2c1C
2. Cc1c2cc(C(=O)NC3CN(c4cc(Cl)ncc4Cl)C3)ncc2nn1C
3. COc1cc(N2CC(NC(=O)c3cn4c(C)c(C)nc4cn3)C2)c(Cl)cn1

[A]
[0.027, 0.03, 0.021]

Required: fraction unbound, one value per compound below.
1. COc1cc(N2CC(NC(=O)c3cc4c(C)n(C)nc4cn3)C2)c(Cl)cn1
2. Cc1nc2cnc(C(=O)NC3CN(c4cc(Cl)ncc4Cl)C3)cn2c1C

[A]
1. 0.032
2. 0.034

[Q] State, in one line, measured fraction unbound of Cc1nn(C)c2cnc(C(=O)NC3CN(c4cc(Cl)ncc4Cl)C3)cc12
[A] 0.021
